Heads up, these compounds all have ΔTm values measured for Casein kinase I isoform gamma-2 (Homo sapiens).
Answers are plain numbers, in °C.

Check out these entries, answers already filled in.
{"columns": ["Compound", "Scale Unit", "ΔTm"],
 "data": [
  ["O=C1Nc2ccccc2/C1=C1/Nc2ccccc2/C1=N\\O", "°C", 2.6],
  ["CN(c1cccnc1)c1cc2c(Nc3ccc(F)c(Cl)c3)c(C#N)cnc2cn1", "°C", 0.4],
  ["N#C/C(=C(/N)Sc1ccc(N)cc1)c1ccccc1C(F)(F)F", "°C", 0.3],
  ["O=C1NC(=O)c2c1c1c3ccccc3[nH]c1n1cncc21 [ISOGRANULATIMIDE]", "°C", 3.6]
]}

Param item: `COC1=C2C[C@@H](C)C[C@H](OC)[C@H](O)[C@@H](C)/C=C(\C)[C@H](OC(N)=O)[C@@H](OC)/C=C\C=C(/C)C(=O)NC(=CC1=O)C2=O` ; param system: Casein kinase I isoform gamma-2 (Homo sapiens); output ΔTm: 0.4

###

Assay Target: Receptor-type tyrosine-protein kinase FLT3 (Homo sapiens, UniProt P36888)
Sequence (P36888 whole entry): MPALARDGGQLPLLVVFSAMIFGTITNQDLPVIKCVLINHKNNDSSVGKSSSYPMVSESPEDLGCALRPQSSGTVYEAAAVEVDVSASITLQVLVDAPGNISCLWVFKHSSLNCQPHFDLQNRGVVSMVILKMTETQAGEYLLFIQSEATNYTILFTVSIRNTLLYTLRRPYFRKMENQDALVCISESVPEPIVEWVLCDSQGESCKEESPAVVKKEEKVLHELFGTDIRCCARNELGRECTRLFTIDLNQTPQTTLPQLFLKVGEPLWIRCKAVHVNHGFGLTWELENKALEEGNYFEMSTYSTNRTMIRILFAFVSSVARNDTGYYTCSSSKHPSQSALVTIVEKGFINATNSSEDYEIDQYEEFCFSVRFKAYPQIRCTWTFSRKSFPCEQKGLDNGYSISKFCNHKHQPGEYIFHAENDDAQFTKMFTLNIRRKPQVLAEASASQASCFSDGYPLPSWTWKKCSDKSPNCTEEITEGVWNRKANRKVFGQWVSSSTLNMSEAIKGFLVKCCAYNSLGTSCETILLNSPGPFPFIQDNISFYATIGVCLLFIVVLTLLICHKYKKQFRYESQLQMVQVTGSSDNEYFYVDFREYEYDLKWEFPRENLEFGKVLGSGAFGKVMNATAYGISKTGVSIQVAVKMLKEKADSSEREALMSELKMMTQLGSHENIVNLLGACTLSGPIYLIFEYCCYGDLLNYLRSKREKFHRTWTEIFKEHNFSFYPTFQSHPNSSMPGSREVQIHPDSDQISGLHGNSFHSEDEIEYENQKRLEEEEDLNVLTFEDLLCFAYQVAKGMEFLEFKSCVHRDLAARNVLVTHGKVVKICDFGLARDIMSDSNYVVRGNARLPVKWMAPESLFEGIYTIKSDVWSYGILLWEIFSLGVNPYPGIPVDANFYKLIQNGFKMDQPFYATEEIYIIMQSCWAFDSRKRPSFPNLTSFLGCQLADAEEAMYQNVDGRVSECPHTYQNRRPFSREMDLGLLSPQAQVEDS
Measured Parameter: IC50 (µM)
Answers are plain numbers, in µM.

Param item: `c1ccc(-c2n[nH]c3c2oc2ccccc23)cc1` ; param system: Receptor-type tyrosine-protein kinase FLT3 (Homo sapiens, UniProt P36888); output IC50: 0.3

###

Assay Target: STE20-like serine/threonine-protein kinase (Homo sapiens) (UniProt Q9H2G2)
Sequence (Q9H2G2 whole entry, looked up): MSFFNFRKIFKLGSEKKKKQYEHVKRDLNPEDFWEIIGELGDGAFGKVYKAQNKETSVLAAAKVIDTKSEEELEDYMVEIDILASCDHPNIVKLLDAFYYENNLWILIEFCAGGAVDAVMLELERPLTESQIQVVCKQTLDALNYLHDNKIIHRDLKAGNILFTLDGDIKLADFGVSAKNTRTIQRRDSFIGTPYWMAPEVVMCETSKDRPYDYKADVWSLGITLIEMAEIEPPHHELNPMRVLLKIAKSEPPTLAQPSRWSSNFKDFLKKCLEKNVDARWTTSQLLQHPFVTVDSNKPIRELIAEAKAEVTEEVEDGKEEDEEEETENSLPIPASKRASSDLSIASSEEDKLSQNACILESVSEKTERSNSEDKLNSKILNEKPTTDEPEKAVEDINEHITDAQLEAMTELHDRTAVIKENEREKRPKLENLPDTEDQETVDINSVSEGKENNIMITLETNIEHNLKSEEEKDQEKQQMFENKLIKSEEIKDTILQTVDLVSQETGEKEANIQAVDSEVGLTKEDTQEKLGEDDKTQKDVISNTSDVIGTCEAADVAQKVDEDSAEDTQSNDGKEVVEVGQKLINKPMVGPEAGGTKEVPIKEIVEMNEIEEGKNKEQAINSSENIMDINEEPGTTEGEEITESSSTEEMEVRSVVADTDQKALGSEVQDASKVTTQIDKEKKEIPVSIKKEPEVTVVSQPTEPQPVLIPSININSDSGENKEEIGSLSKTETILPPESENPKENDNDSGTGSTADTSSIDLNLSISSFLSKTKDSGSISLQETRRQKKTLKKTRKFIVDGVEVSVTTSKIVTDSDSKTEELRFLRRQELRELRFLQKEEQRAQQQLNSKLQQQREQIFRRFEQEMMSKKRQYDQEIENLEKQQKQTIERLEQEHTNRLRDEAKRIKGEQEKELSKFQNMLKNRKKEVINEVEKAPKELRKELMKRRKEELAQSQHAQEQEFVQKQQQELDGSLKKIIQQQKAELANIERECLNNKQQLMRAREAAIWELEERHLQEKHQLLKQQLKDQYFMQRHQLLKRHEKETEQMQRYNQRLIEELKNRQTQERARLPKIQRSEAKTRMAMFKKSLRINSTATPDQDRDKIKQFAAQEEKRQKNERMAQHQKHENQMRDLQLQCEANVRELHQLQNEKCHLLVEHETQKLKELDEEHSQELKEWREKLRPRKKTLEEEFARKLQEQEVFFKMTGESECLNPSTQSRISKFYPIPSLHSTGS
Label key: Y means ΔTm under 2 °C; N means ΔTm of 2 °C or more.

{"columns": ["Smiles Str", "Assay Target", "Class Label"],
 "data": [
  ["CC(C)(C)c1nc2c3ccc(F)cc3c3c(=O)[nH]ccc3c2[nH]1", "STE20-like serine/threonine-protein kinase (Homo sapiens) (UniProt Q9H2G2)", "Y"],
  ["CCOC(=O)c1c(C)[nH]c(/C=C2\\C(=O)Nc3ccccc32)c1C", "STE20-like serine/threonine-protein kinase (Homo sapiens) (UniProt Q9H2G2)", "Y"],
  ["Cc1ccc(NC(=O)c2ccc(CN3CCN(C)CC3)cc2)cc1Nc1nccc(-c2cccnc2)n1", "STE20-like serine/threonine-protein kinase (Homo sapiens) (UniProt Q9H2G2)", "Y"],
  ["Brc1c(Br)c(Br)c2[nH]nnc2c1Br", "STE20-like serine/threonine-protein kinase (Homo sapiens) (UniProt Q9H2G2)", "Y"],
  ["COc1ccc(CNc2nc(N(CCO)CCO)nc3c2ncn3C(C)C)cc1", "STE20-like serine/threonine-protein kinase (Homo sapiens) (UniProt Q9H2G2)", "Y"],
  ["CN(C)S(=O)(=O)c1ccc2c(c1)/C(=C/c1cc3c([nH]1)CCCC3)C(=O)N2", "STE20-like serine/threonine-protein kinase (Homo sapiens) (UniProt Q9H2G2)", "N"],
  ["NC1=NC(=O)/C(=C2\\CCNC(=O)c3[nH]c(Br)cc32)N1", "STE20-like serine/threonine-protein kinase (Homo sapiens) (UniProt Q9H2G2)", "N"],
  ["Ic1cccc(CSc2nnc(-c3ccncc3)o2)c1", "STE20-like serine/threonine-protein kinase (Homo sapiens) (UniProt Q9H2G2)", "Y"]
]}

Req: Problem: For the compound `O=C1C=C2C(=Nc3c2c2c(c4c3=NC3=C4CCC=C3)C=NC=2)CC1` , is ΔTm under 2 °C?
Resp: N

Req: Problem: For the compound `CCCNC(=O)Nc1ccc(Oc2ncnc3cc(OC)c(OC)cc23)cc1Cl` , is ΔTm under 2 °C?
Resp: Y

###

Assay Target: Serine/threonine-protein kinase PAK 4 (Homo sapiens)
Label key: 1 means ΔTm under 2 °C; -1 means ΔTm of 2 °C or more.

Take a look at these entries with their results.
{"columns": ["Molecule", "Class Label"],
 "data": [
  ["Cn1cnc2c(NCc3ccccc3)nc(NCCO)nc21 [OLOMOUCINE]", 1],
  ["CCN(CC)CCNC(=O)c1c(C)[nH]c(/C=C2\\C(=O)Nc3ccc(Cl)cc32)c1C [SU-11652]", -1],
  ["Cn1cc(C2=C(c3cn(CCCSC(=N)N)c4ccccc34)C(=O)NC2=O)c2ccccc21", -1],
  ["CSc1nc(-c2ccc(F)cc2)c(-c2ccnc(NC(C)c3ccccc3)c2)[nH]1 (racemic)", 1],
  ["Oc1ccc(-c2nc(-c3ccc(F)cc3)c(-c3ccncc3)[nH]2)cc1", 1]
]}

Req: Problem: For the molecule `Clc1ccc(Nc2nnc(Cc3ccncc3)c3ccccc23)cc1` , is ΔTm under 2 °C?
Resp: 1

Req: Problem: For the molecule `Cc1cc2ncc(-c3ccccc3)nc2cc1C` , is ΔTm under 2 °C?
Resp: 1

Req: Problem: For the molecule `N=C(N)NCCNS(=O)(=O)c1cccc2cnccc12` , is ΔTm under 2 °C?
Resp: 1

Req: Problem: For the molecule `O=C1c2ccccc2-c2n[nH]c3cccc1c23` , is ΔTm under 2 °C?
Resp: 1

Req: Problem: For the molecule `CC(C)c1nn(-c2c(Cl)cccc2Cl)c2nc(Cc3ccc(OCCO)cc3)[nH]c(=O)c12` , is ΔTm under 2 °C?
Resp: -1

###

Assay Target: Tyrosine-protein kinase Lck (Homo sapiens)
Sequence (P06239 whole entry): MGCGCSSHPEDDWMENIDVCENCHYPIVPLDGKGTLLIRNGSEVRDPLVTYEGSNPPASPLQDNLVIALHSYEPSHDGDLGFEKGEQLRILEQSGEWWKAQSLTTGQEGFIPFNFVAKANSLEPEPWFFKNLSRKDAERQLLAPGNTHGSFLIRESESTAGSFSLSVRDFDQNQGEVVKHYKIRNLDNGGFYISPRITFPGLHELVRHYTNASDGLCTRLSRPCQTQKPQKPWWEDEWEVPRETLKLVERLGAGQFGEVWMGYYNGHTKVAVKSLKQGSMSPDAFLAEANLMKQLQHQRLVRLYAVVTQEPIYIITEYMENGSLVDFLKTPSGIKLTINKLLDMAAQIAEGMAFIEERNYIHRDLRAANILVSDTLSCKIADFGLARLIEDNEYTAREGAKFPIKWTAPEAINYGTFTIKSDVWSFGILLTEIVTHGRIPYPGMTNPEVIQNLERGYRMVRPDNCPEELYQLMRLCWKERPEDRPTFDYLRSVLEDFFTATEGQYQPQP
Measured Parameter: pIC50
Give bare numbers, as −log10 of the molar value.

Form: compound = COc1c(C=O)c(O)cc2c1C(=O)c1ccccc1C2=O [DAMNACANTHAL] ; pIC50 = 6.21

###

Please respond with reported ΔTm for every item in the list.
Assay Target: Mitogen-activated protein kinase 6 (Homo sapiens) (UniProt Q16659)
Sequence (Q16659 whole entry): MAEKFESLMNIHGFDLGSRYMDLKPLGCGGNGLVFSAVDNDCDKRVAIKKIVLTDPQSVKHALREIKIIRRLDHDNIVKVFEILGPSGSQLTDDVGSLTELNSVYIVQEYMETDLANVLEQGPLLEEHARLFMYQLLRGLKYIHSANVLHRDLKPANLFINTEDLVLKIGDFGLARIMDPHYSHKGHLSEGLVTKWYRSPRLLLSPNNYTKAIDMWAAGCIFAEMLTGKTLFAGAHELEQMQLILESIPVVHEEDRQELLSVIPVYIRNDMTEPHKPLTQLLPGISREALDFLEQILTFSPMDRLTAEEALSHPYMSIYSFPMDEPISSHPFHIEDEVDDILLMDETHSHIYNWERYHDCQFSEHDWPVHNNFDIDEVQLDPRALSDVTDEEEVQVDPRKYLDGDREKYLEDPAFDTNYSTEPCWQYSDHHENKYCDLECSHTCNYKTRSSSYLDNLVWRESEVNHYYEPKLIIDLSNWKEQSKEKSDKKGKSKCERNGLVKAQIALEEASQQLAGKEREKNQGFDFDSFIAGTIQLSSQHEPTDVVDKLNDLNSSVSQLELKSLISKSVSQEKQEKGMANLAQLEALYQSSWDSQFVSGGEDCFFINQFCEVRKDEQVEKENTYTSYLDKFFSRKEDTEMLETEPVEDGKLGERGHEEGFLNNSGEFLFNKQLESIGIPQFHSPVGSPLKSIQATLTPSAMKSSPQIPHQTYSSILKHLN
One number for each entry, in °C.

Check out these entries, answers already filled in.
{"columns": ["Molecule", "Reported Measurement"],
 "data": [
  ["COc1ccc(Cl)cc1NC(=O)Nc1cc(C)nc2ccccc12", 2.1],
  ["O=c1cc(N2CCOCC2)oc2c1ccc1ccccc12", 0.4],
  ["C[S+]([O-])c1ccc(-c2nc(-c3ccc(F)cc3)c(-c3ccncc3)[nH]2)cc1 (stereo not given) [SB-203580]", 0],
  ["CC(C)(C)n1nc(-c2cccc3ccccc23)c2c(N)ncnc21", 0]
]}

Each of the following entries comes with a recorded value; kindly state ΔTm for each.
1. Cn1cc(C2=C(c3cn(CCCN)c4ccccc34)C(=O)NC2=O)c2ccccc21
2. Cc1cncc2cccc(S(=O)(=O)N3CCCNC[C@@H]3C)c12
3. O=C(O)/C=C/c1cc(CO)ccc1CO
4. CN1CCC(Nc2ncc3ncnc(Nc4ccc(F)c(Cl)c4)c3n2)CC1 [FALNIDAMOL]
5. COc1ccc2c(c[n+](C)c3c4cc5c(cc4ccc23)OCO5)c1OC [CHELERYTHRINE CHLORIDE]
6. O=C1Cc2c([nH]c3ccc([N+](=O)[O-])cc23)-c2ccccc2N1

Resp:
[0.3, 0, 0.3, 0, -0.3, 1.2]

###

Heads up, these compounds all have ΔTm values measured for Serine/threonine-protein kinase 25 (Homo sapiens) (UniProt O00506).
Give bare numbers, in °C.

{"columns": ["Compound", "Scale Unit", "ΔTm"],
 "data": [
  ["COc1cc2ncnc(Nc3cccc(O)c3)c2cc1OC", "°C", 0.6]
]}

Each of the following entries comes with a recorded value; kindly state ΔTm for each.
1. COc1cccc(-c2cc(=O)c3ccccc3o2)c1N
2. Oc1cccc(-c2nc(N3CCOCC3)c3oc4ncccc4c3n2)c1
3. CN(C)CC1CCn2c(c(C3=C(c4c[nH]c5ccccc45)C(=O)NC3=O)c3ccccc32)C1 (stereo unspecified)
4. CN[C@@H]1CC2O[C@@](C)([C@@H]1OC)n1c3ccccc3c3c4c(c5c6ccccc6n2c5c31)C(=O)NC4
5. Cl.Cn1cc(C2=C(c3ccc4cc5n(c4c3)CCC(CN)C5)C(=O)NC2=O)c2ccccc21 (stereo unspecified)

Resp:
1. 0.5
2. -0.6
3. 0.4
4. 9.6
5. 0.7
